ASSAY_TARGET: human Kv1.3 (Homo sapiens)
Construct: expressed in transfected cells; host or cells: stably transfected cells grown in medium for CHO cells
Sequence (P22001 whole entry): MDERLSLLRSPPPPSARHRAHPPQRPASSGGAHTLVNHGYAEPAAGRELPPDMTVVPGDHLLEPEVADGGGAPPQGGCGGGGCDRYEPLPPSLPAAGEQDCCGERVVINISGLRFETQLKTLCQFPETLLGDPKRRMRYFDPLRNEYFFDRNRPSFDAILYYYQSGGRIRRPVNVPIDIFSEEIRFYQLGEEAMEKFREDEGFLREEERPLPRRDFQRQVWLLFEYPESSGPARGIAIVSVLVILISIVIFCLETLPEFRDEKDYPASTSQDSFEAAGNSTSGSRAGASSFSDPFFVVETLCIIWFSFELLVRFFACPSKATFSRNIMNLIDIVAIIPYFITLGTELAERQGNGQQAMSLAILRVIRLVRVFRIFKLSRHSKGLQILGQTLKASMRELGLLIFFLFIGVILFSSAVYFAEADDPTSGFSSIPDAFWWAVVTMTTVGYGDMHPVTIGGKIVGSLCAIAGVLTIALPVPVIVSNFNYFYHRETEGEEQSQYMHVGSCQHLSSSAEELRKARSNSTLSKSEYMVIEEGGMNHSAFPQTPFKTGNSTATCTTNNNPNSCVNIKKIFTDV
EXPERIMENT_NOTES: Kv1.3 Autopatch electrophysiology (whole cell patch-clamp, inhibition of charge movement)
Format: cell-based
PARTICULARS: compound at 1 μM; cells stably transfected with human Kv1.3; room temperature; total charge during step to +30 mV relative to control; read-out: hKv1.3 % inh.
Item-by-item account of inhibition at 1 µM

In the examples that follow, each entry is paired with its recorded inhibition at 1 µM.
- COMPOUND: "Cn1cnc(S(=O)(=O)N(Cc2ccccc2)c2ccc(C(=O)N3CCC(F)(F)CC3)cc2)c1"
  RESULT: "60%"
- COMPOUND: "CC1CCCN(C(=O)c2ccc(N(Cc3ccc(F)cc3)S(=O)(=O)c3cn(C)cn3)cc2)C1 (stereo not drawn)"
  RESULT: "52%"

Item Cn1nccc1S(=O)(=O)N(Cc1ccccc1)c1ccc(C(=O)N2CCNC(c3ccccc3)C2)cc1 (stereo not drawn) has what recorded inhibition at 1 µM?
61%

Item COc1cccc(CN(c2ccc(C(=O)N3CCN(c4ccccc4)CC3)cc2)S(=O)(=O)c2ccccc2)c1 has what recorded inhibition at 1 µM?
56%

Item Cn1cnc(S(=O)(=O)N(Cc2ccccc2)c2ccc(C(=O)N3CCN(c4ccccc4)CC3)cc2F)c1 has what recorded inhibition at 1 µM?
69%

Item O=C(c1ccc(N(Cc2ccccc2)S(=O)(=O)c2ccccc2)cc1)N1CCC(O)(Cc2ccccc2)CC1 has what recorded inhibition at 1 µM?
87%

Item Cn1ccc(S(=O)(=O)N(Cc2ccccc2)c2ccc(C(=O)N3CCOC(c4ccccc4)C3)cc2)n1 (stereo not drawn) has what recorded inhibition at 1 µM?
89%

Item Cn1cnc(S(=O)(=O)N(Cc2ccccc2)c2ccc(C(=O)N3CCN(c4ccccc4F)CC3)cc2)c1 has what recorded inhibition at 1 µM?
64%

Item Cn1ccc(S(=O)(=O)N(Cc2ccccc2)c2ccc(C(=O)N3CCNC(c4ccccc4)C3)cc2)n1 (stereo not drawn) has what recorded inhibition at 1 µM?
46%

Item CC1CCN(C(=O)c2ccc(N(Cc3ccc(Cl)cc3)S(=O)(=O)c3cn(C)cn3)cc2)C1 (stereo not drawn) has what recorded inhibition at 1 µM?
52%

Item Cc1ccc(CN(c2ccc(C(=O)N3CCCC(C)C3)cc2)S(=O)(=O)c2cn(C)cn2)cc1 (stereo not drawn) has what recorded inhibition at 1 µM?
51%
